The values you see were collected from the supplement of paper PMC10201428.

B1: library; a variant is named by its letters at N, in order (parent)
chain: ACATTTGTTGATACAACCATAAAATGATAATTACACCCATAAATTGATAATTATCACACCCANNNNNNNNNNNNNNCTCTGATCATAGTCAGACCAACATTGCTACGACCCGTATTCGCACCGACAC

# Variants of: B1
# assay-text: relative integration efficiency (T-RL orientation) vs wild-type transposon end (log2 (normalized fold change)); transposon end mutated: right end (5 bp flank + 75 bp right end); higher = more efficient transposition
# condition-notes: with VchCAST RNA-guided transposition machinery (E. coli BL21(DE3) host, lacZ target)
# relative integration efficiency (log2) listing for each entry below
experimental-endpoint: relative integration efficiency (log2)

* TAAATTGATATTGC T44G | -0.00517
* ATTTAACTATAACG C18T | -0.685
* TTTATTGATATTGC | 0.0323
* ATTTAACTATAACG T32A | -1.5
* TAAATTGATATTGC G46T | -0.423
* AAAATTGATATTGC A62T | -0.47
* ATTTAACTATAACG A49T | -1.3
* TAAATTGATATTGC C2T | -0.0194
* TCCATTGATATTGC | -0.657
* TAAATTGATATTGC A16G | -0.119
* ATTTAACTATAACG T52A | -1.26
